# Read-out: Intercellular Adhesion Molecule 1 (ICAM1), ICAM1 (gene 3383)
# test details: BSK_KF3CT_ICAM1: BioMAP Diversity Plus: KF3CT Assay for Intercellular Adhesion Molecule 1 (ICAM1) Biomarker Activity (AID 2283067)
# test parameters: primary human keratinocytes with fibroblasts; actives raise or lower the signal
Activity calls are given as the source filed them. How the source made its calls: active means hit-call score of the fitted dose curve at least 0.9, where 1 is the maximum; inactive means score below 0.9.
Possible outcomes: T (active), F (inactive)

compound: Clc1ccc(Cl)cc1
cat: F
--
compound: C=CC(N)=O
cat: F
--
compound: Cc1ccccc1[N+](=O)[O-]
cat: F
--
compound: C[C@]12CCC(=O)C=C1CC[C@@H]1[C@@H]2CC[C@]2(C)C(=O)CC[C@@H]12
cat: F
--
compound: Oc1ccc(Cl)cc1Cl
cat: F
--
compound: CCOP(=S)(OCC)SCSC(C)(C)C
cat: F
--
compound: c1ccc(-c2ccccc2)cc1
cat: F
--
compound: ClC1=C(Cl)[C@]2(Cl)[C@@H]3[C@H]4C[C@H]([C@@H]5O[C@H]45)[C@@H]3[C@@]1(Cl)C2(Cl)Cl
cat: F
--
compound: O=C(O)C(F)(F)C(F)(F)C(F)(F)C(F)(F)C(F)(F)C(F)(F)C(F)(F)C(F)(F)F
cat: F
--
compound: CC1=C2C[C@H]3[C@@H](CC=C4C[C@@H](O)CC[C@@]43C)[C@@H]2CC[C@]12O[C@@H]1C[C@H](C)CN[C@H]1[C@H]2C
cat: F
--
compound: CC(c1ccc(O)cc1)(c1ccc(O)cc1)c1ccc(O)cc1
cat: T
--
compound: Oc1ccc(C(c2ccc(O)cc2)(C(F)(F)F)C(F)(F)F)cc1
cat: T
--
compound: CCSC(=O)N(CC)C1CCCCC1
cat: F
--
compound: Clc1ccc(C(Cl)(Cl)Cl)cc1
cat: F
--
compound: Cc1cc2c3c(c1)C(c1ccccc1)=N[C@@H](NC(=O)c1ccncc1)C(=O)N3CC2
cat: F
--
compound: O=S(=O)(O)C(F)(F)C(F)(F)C(F)(F)C(F)(F)F
cat: F
--
compound: CCCCCCCCCC[N+](C)(C)CCCCCCCCCC
cat: T
--
compound: Cc1ccc(O)c(C)c1
cat: F
--
compound: COS(=O)(=O)OC
cat: F
--
compound: Cc1ccccc1CO[C@@H]1C[C@@]2(C(C)C)CC[C@]1(C)O2
cat: F
--
compound: ClC(Cl)=C(c1ccc(Cl)cc1)c1ccc(Cl)cc1
cat: T
--
compound: CCC(C)(CC)c1cc(NC(=O)c2c(OC)cccc2OC)on1
cat: F
--
compound: C1CC2OC2CC1C1CO1 (stereo not given)
cat: F
--
compound: CCC(=O)O[C@H]1CC[C@H]2[C@@H]3CCC4=CC(=O)CC[C@]4(C)[C@H]3CC[C@]12C
cat: T
--
compound: COc1ccc(O)c(C(C)(C)C)c1
cat: F
